- tgt: G9a (Homo sapiens)
- Construct: His6 (N); made in house; host or cells: E. coli BL21 (DE3)pLysS-rosetta
- Sequence (Q96KQ7 whole entry): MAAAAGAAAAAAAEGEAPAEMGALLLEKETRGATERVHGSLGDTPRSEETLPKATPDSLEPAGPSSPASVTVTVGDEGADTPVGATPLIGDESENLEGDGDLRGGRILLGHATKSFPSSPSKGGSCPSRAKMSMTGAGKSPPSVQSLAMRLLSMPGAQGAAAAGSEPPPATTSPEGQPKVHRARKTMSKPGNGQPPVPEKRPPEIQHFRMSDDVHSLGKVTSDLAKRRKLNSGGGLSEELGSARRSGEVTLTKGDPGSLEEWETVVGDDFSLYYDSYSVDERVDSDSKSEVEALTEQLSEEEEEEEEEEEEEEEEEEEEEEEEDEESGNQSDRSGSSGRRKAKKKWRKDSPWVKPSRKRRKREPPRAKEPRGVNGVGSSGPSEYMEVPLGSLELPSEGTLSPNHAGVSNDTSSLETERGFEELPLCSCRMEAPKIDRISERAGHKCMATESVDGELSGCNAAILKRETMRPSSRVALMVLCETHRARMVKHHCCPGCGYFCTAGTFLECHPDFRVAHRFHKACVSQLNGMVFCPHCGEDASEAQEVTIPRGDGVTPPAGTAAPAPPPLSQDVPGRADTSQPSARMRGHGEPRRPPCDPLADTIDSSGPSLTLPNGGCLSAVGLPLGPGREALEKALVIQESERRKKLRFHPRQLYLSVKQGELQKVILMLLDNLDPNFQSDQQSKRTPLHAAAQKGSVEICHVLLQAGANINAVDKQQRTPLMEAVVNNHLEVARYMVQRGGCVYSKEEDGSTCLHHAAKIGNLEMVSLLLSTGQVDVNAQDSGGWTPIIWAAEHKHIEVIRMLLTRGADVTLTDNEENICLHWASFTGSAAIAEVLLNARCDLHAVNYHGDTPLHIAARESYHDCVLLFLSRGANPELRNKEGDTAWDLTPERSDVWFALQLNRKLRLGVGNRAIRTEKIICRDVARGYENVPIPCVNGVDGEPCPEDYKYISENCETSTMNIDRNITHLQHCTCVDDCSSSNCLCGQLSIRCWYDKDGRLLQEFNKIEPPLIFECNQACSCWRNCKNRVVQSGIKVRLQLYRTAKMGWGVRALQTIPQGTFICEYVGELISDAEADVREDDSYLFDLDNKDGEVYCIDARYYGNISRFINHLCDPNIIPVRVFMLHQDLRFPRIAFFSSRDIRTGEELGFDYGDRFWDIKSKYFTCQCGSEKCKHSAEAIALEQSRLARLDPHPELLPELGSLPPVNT
- test: MALDI-TOF MS methylation assay of H3K9 peptides with G9a
- Format: biochemical
- run-parameters: peptide 100 µM, G9a 2 µM, SAM 500 µM, 1 h, 37 °C
test-readout: G9a-catalyzed methylation, result in words

substance | reading
ARTKQTAR(Ap9)STGGKA [H3AP9] | lack of methylation
ARTKQTAR(Y9)STGGKA (ARTKQTARYSTGGKA) [H3Y9] | lack of methylation
ARTKQTAR(F4a9)STGGKA [H3F4a9] | lack of methylation
